Reported values of TGI for individual entries
Test system: CCRF-CEM leukemia
Assay: NCI tumour cell line growth inhibition, 48 h

- compound: "CC1(C)CCC(=O)NC1CC(=O)CC1NC(=O)CCC1(C)C (stereo not drawn)"
  experimental-target: "CCRF-CEM leukemia"
  TGI: "> 100 µM"
- compound: "CC(=O)N1c2ccccc2C(C)C1c1[nH]c2ccccc2c1C (stereo not drawn)"
  experimental-target: "CCRF-CEM leukemia"
  TGI: "> 100 µM"
- compound: "Cc1nc2ccccc2n1Cc1nnc(N)o1"
  experimental-target: "CCRF-CEM leukemia"
  TGI: "> 100 µM"

* * *

Test system: BT-549 breast
Assay: NCI tumour cell line growth inhibition, 48 h
Here, each record is paired with measured TGI data.

- molecule: "NC1CC(=O)c2sccc21 (stereo not drawn)"
  bound-type: ">"
  TGI (µM): 100
- molecule: "Cc1nc2ccccc2n1Cc1nnc(N)o1"
  bound-type: ">"
  TGI (µM): 100
- molecule: "NS(=O)(=O)c1ccc(NC(=O)c2cccc3cc4ccccc4nc23)cc1"
  bound-type: ">"
  TGI (µM): 100
- molecule: "CCOC(=O)c1cc(C(=O)c2cc(OC)c(OC)c(OC)c2)n2ccccc12"
  bound-type: ">"
  TGI (µM): 100
- molecule: "c1ccc(C(CCN2CC3CCC(CC3)C2)c2ccccc2)cc1"
  bound-type: ">"
  TGI (µM): 100
- molecule: "Cc1cc2cn3c4cccnc4[nH]c(=O)c3c2cc1C"
  bound-type: "="
  TGI (µM): 29.4
- molecule: "O=C1CCS/C(=N\\S(=O)(=O)c2ccc(N3N=C4c5ccccc5CC4C3c3cccs3)cc2)N1C(=O)c1ccccc1 (stereo not drawn)"
  bound-type: ">"
  TGI (µM): 100
- molecule: "CCN(CC)CCCOc1cc2c(cc1OC)C(=O)N1CCC[C@H]1C=N2"
  bound-type: "="
  TGI (µM): 76.1
- molecule: "O=C(OCCC12CC3CC(CC(C3)C1)C2)c1ccc(NCc2cc(O)ccc2O)cc1"
  bound-type: "="
  TGI (µM): 0.684
- molecule: "OCC(O)C(O)C(O)/C=N/Nc1nc2ccccc2nc1-c1ccccc1 (stereo not drawn)"
  bound-type: ">"
  TGI (µM): 100
- molecule: "C=C(C(=O)OC)c1cc2ccccc2n1S(=O)(=O)c1ccccc1"
  bound-type: "="
  TGI (µM): 5.12
- molecule: "CCOC(=O)C(C(=O)OCC)=C1NC2(c3ccccc3Nc3ccc(C)cc32)C(C(=O)OC)S1 (stereo not drawn)"
  bound-type: ">"
  TGI (µM): 100
- molecule: "CC(C)c1ccc(NC(=S)NC(=O)c2ccccc2)cc1"
  bound-type: "="
  TGI (µM): 60.6
- molecule: "COc1ccccc1-c1cc(=O)c2ccc(OC)c(OC)c2o1"
  bound-type: ">"
  TGI (µM): 100
- molecule: "N#Cc1ccc2c(c1)C(=O)c1c-2n(CCCN)c(=O)c2cc([N+](=O)[O-])ccc12"
  bound-type: "="
  TGI (µM): 2.29
- molecule: "CCOc1ccc2nc(NC(NC(=O)c3cccnc3)(C(F)(F)F)C(F)(F)F)sc2c1"
  bound-type: ">"
  TGI (µM): 100
- molecule: "COc1ccc2c(c1)C1(C(=O)N2)C(C#N)=C(c2ccccc2)Nc2c1c(-c1ccccc1)nn2-c1ccccc1 (stereo not drawn)"
  bound-type: "="
  TGI (µM): 8.03
- molecule: "Oc1cccc(-c2cn3cc(C(F)(F)F)ccc3n2)c1"
  bound-type: ">"
  TGI (µM): 100
- molecule: "O=C1ON=C2C3CC4CC12CC1(C3)C(=O)ON=C41"
  bound-type: ">"
  TGI (µM): 100
- molecule: "COc1ccc2c(c1)/C(=C/c1cc(OC)c(OC)c(OC)c1)C(=O)N2C"
  bound-type: ">"
  TGI (µM): 30.4
- molecule: "Nn1c(Cc2ccccc2)n[nH]c1=O"
  bound-type: ">"
  TGI (µM): 100
- molecule: "C#CCn1c(=O)c(Cl)cn(/C(=C/C(=O)OCC)C(=O)OCC)c1=O"
  bound-type: "="
  TGI (µM): 35.7
- molecule: "C=C1C(=O)O[C@H]2[C@H]1CC/C(Cn1cc(-c3cc(C)c(C)cc3C)nn1)=C\\CC[C@@]1(C)O[C@@H]21"
  bound-type: "="
  TGI (µM): 2.66
- molecule: "CC1(C)CCC(=O)NC1CC(=O)CC1NC(=O)CCC1(C)C (stereo not drawn)"
  bound-type: ">"
  TGI (µM): 100
- molecule: "c1ccc2nc(CCC3CCCCN3)ccc2c1 (stereo not drawn)"
  bound-type: ">"
  TGI (µM): 100
- molecule: "COc1ccccc1NC(=O)O/N=C(/Cl)C(C)C"
  bound-type: "="
  TGI (µM): 21.6
- molecule: "O=C(Nc1ccccc1)Nc1cccc(Oc2nnc(Cl)c3ccccc23)c1"
  bound-type: "="
  TGI (µM): 10.8
- molecule: "CN(C)CCCn1c2nc(=O)[nH]c(=O)c-2nc2cc(Cl)c(Cl)cc21"
  bound-type: "="
  TGI (µM): 34.7

Values from PubChem BioAssay (NCI)
